# Measurement target: Serine/threonine-protein kinase PAK 4 (Homo sapiens, UniProt O96013)
# Sequence (O96013 whole entry): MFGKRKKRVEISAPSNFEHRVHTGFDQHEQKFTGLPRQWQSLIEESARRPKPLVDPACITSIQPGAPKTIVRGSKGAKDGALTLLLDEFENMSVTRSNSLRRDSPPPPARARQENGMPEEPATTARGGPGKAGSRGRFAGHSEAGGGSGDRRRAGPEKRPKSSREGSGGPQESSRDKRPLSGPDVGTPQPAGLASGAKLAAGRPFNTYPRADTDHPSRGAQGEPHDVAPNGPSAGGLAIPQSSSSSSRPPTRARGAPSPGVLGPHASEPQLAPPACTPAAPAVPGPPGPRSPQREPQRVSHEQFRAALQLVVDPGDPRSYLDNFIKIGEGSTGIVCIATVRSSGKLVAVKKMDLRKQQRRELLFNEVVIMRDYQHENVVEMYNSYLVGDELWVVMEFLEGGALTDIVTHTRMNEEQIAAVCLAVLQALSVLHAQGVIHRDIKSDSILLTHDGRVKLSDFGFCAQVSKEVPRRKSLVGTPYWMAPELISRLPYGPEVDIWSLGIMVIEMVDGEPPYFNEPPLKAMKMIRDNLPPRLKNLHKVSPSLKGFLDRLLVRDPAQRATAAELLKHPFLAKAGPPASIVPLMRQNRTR
# Assay explanation: Inhibition of PAK4 (unknown origin) in presence of ATP by Z-LYTE enzymatic kinase assay
pIC50: −log10 of the molar value.
Attribute measured: pIC50

• CCn1c(=O)c(-c2ccc(-c3cncs3)cc2Cl)cc2cnc(Nc3ccc(N4CCN(C)CC4)cc3)nc21 = < 5.00

----------
# Assay explanation: Clearance in rat at 10 mg/kg, po
# Assay type: ADME, organism-based
# Run conditions: in vivo
Attribute measured: CL/F (mL/min/kg)

• CN(C)C[C@@H](OC(=O)N1Cc2c(NC(=O)C(C)(C)C)n[nH]c2C1(C)C)c1ccccc1 = 52

Every entry's value here was drawn from ChEMBL document CHEMBL5678812.
